pIC50: −log10 of the molar value.
Each entry below carries its measured pIC50, system: Collagenase 3 (Homo sapiens, UniProt P45452).
VALUE KIND: pIC50

{"columns": ["COMPOUND", "VALUE KIND", "VALUE REPORTED"],
 "data": [
  ["C=CC(CCc1ccccc1)CC(=O)C(F)(F)c1ccc(Cc2ccccc2)cc1 (centres undefined)", "pIC50", 6.54]
]}

A. CNC(=O)C(NC(=O)CCC(=O)C(F)(F)c1ccc(Cc2ccccc2)cc1)C(C)(C)C (centres undefined)
B. CNC(=O)[C@@H](NC(=O)C(CCc1ccccc1)CP(=O)(O)Cc1ccc(Cc2ccccc2)cc1)C(C)(C)C (some centres undefined)
[in] Kindly identify the item with the lower pIC50 figure among these two: A and B Return value: the label identifying the chosen record.
[out] A
